Measured GI50, listed per entry for reference.
system: SNB-78; experiment: NCI tumour cell line growth inhibition, 48 h
Active and inactive are the calls of the source. Rule as the data show it: active = GI50 up to about 1.1 µM and inactive = higher.

CC(C)NC(=O)OCc1c(COC(=O)NC(C)C)c(-c2ccc(Cl)c(Cl)c2)n2c1CCC2 ... 21.2 µM (inactive)

Prompt line: Supply recorded GI50 for Cn1cccc(C(=O)c2ccccc2)c1=O here.
Response line: > 100 µM (inactive)

Prompt line: Supply recorded GI50 for CCC(=O)N1C(=S)SC[C@H]1C(=O)OC here.
Response line: > 100 µM (inactive)

----------
Measured GI50, listed per entry for reference.
tested on: COLO 205; experiment: NCI tumour cell line growth inhibition, 48 h
The source made the active and inactive calls. Rule as the data show it: active = GI50 up to about 1.1 µM and inactive = higher.

Prompt line: Supply recorded GI50 for CCOc1ncn(-c2ccc(NC(=S)Nc3ncccn3)cc2)n1 here.
Response line: 29.5 µM (inactive)

Prompt line: Supply recorded GI50 for O=C1c2ccc3c4ccccc4n(-c4ccccc4)c3c2C(=O)N1c1ccc(Cl)cc1 here.
Response line: > 100 µM (inactive)

Prompt line: Supply recorded GI50 for COc1ccc(NC(C)=O)cc1N1C(=O)/C(=C\c2cc(OC)c(OC)c(OC)c2)SC1c1ccccc1 (centres undefined) here.
Response line: 39.6 µM (inactive)

Prompt line: Supply recorded GI50 for Cc1ccc(S(=O)(=O)n2cc(C=O)c(-c3cn(S(=O)(=O)c4ccc(C)cc4)cc3-c3cn(S(=O)(=O)c4ccc(C)cc4)cc3C=O)c2)cc1 here.
Response line: 75.2 µM (inactive)

Prompt line: Supply recorded GI50 for CCC(=O)N1C(=S)SC[C@H]1C(=O)OC here.
Response line: > 100 µM (inactive)

Prompt line: Supply recorded GI50 for COc1cc(C2SC(C)C(=O)N2c2ccc(-c3csc(NS(=O)(=O)c4ccc(Cl)c(OC)c4)n3)cc2)ccc1O (centres undefined) here.
Response line: > 100 µM (inactive)

Prompt line: Supply recorded GI50 for Nc1nc2ncn(CCO)c2c(=S)[nH]1 here.
Response line: > 100 µM (inactive)

Prompt line: Supply recorded GI50 for CC(=O)O[C@]1(C)OC(=O)[C@@H](C)N1[N+](=O)[O-] here.
Response line: > 100 µM (inactive)

Prompt line: Supply recorded GI50 for Cc1cnoc1/N=C1\C=C(Nc2oncc2C)C(=O)c2ccccc21 here.
Response line: > 100 µM (inactive)

Prompt line: Supply recorded GI50 for Nc1nncs1 here.
Response line: 456 µM (inactive)

Prompt line: Supply recorded GI50 for CCN(CC)CCCCC1CCN(CC(=O)N2CC(C)C(=O)Nc3ccccc32)CC1 (centres undefined) here.
Response line: > 100 µM (inactive)

Prompt line: Supply recorded GI50 for CCOC(=O)N1C(=S)C(C(=O)OC)(C(=O)OC)N=C1C here.
Response line: > 100 µM (inactive)

Prompt line: Supply recorded GI50 for COc1cc(OC)c(/C=C\c2cc(/C=C/c3c(OC)cc(OC)cc3OC)c3ccccc3[n+]2C)c(OC)c1 here.
Response line: 1.67 µM (inactive)

Prompt line: Supply recorded GI50 for CC(C)CC(=O)N1CCN(C(=O)CC(C)C)c2ccccc21 here.
Response line: > 100 µM (inactive)

Prompt line: Supply recorded GI50 for CCCCNCCCNCCCNC(=O)c1csc(-c2csc(CCNC(=O)C(NC(=O)C(C)C(O)C(C)NC(=O)C(NC(=O)c3nc(C(CC(N)=O)NCC(N)C(N)=O)nc(N)c3C)C(OC3OC(CO)C(O)C(O)C3OC3OC(CO)C(O)C(OC(N)=O)C3O)c3c[nH]cn3)C(C)O)n2)n1 (centres undefined) here.
Response line: 9.44 µM (inactive)

Prompt line: Supply recorded GI50 for CCOP1(=O)C=C(C)C(Cl)=C(C)C1 (centres undefined) here.
Response line: 12 µM (inactive)

Prompt line: Supply recorded GI50 for CCN(CC)CCOC(=O)/C(=C/c1ccc(OC)cc1)c1cc(OC)c(OC)c(OC)c1 here.
Response line: 5.75 µM (inactive)

Prompt line: Supply recorded GI50 for N=C(CSSCC(=N)NCC12CC3CC(CC(C3)C1)C2)NCC12CC3CC(CC(C3)C1)C2 here.
Response line: 19.2 µM (inactive)

Prompt line: Supply recorded GI50 for O=C(Nc1ccc(Cl)cc1Cl)C(=O)C(C(=O)c1ccc2ccccc2c1)C1OC(=O)c2ccccc21 (centres undefined) here.
Response line: 9.46 µM (inactive)

----------
tested on: MCF7; experiment: NCI tumour cell line growth inhibition, 48 h
Activity calls are given as the source filed them. Cut-off read from the data, not from the text of the source: active = GI50 up to about 1.1 µM and inactive = higher.
Measured GI50, listed per entry for reference.

The examples below pair each entry with its known result.
CCCOC(=O)NC(C)C(=O)NC(CCC(=O)NC(CCCC(N)C(=O)O)C(=O)NC(C)C(=O)O)C(=O)O (stereo unspecified) ... 39.2 µM (inactive)
CCOc1ncn(-c2ccc(NC(=S)Nc3ncccn3)cc2)n1 ... 32.7 µM (inactive)
CC1(c2nc3cc(Cl)c(Cl)cc3[nH]2)CCC(C(=O)O)C(C)(C)O1 (stereo unspecified) ... > 100 µM (inactive)
CC(NC(=O)OC(C)(C)C)C(=O)NC1CCCC1 (stereo unspecified) ... > 100 µM (inactive)
O=C(Nc1cccc(NC(=O)C(=O)C2CCC3=C(Sc4ccccc4N3)C2=O)n1)C(=O)C1CCC2=C(Sc3ccccc3N2)C1=O (stereo unspecified) ... 75.7 µM (inactive)
CN(C)P(=O)(Oc1occc1C(O)Cc1ccccc1)N(C)C (stereo unspecified) ... > 100 µM (inactive)
O=C1OC(c2ccc([N+](=O)[O-])cc2)=N/C1=C\c1ccc(O)cc1 ... > 100 µM (inactive)
O=C(O)c1cc2ccccc2c(/N=N/c2ccc(S(=O)(=O)O)cc2)c1O ... > 100 µM (inactive)

Prompt line: Report value only: GI50, MCF7, O=C1/C(=C/c2cccc3ccccc23)CCc2ccc([N+](=O)[O-])cc21
Response line: 4.8 µM (inactive)

Prompt line: Report value only: GI50, MCF7, CC(=O)N1c2ccccc2C2=NN(C)C(=N)SC21 (stereo unspecified)
Response line: > 100 µM (inactive)

Prompt line: Report value only: GI50, MCF7, CC1C(=O)C(C)C(c2ccco2)N(N=O)C1c1ccco1 (stereo unspecified)
Response line: > 100 µM (inactive)

----------
system: SN12C; assay: NCI tumour cell line growth inhibition, 48 h
Active and inactive are the calls of the source. Rule as the data show it: active = GI50 up to about 1.1 µM and inactive = higher.
ENDPOINT_NAME: GI50

The examples below pair each entry with its known result.
COc1cc(/C=C2\N=C(c3ccccc3)N(c3nc4cc(C)c(C)cc4s3)C2=O)ccc1O ... 25.8 µM (inactive)
Nc1nc(Cl)c(N)c(NCC2(CO)CC2)n1 ... > 100 µM (inactive)
O=C1OC2(c3ccccc3Oc3ccccc32)c2ccccc21 ... > 100 µM (inactive)
Cc1coc2c1CC1(C)C(CCC(O)C1C)C2 (configuration not stated) ... > 100 µM (inactive)
C=C(C)CNC(=S)N(N)c1ccc2ccccc2c1 ... > 100 µM (inactive)

Prompt line: Supply recorded GI50 for O=C(N/C(=C\NC1=NCCS1)C(=O)N1CSC[C@@H]1C(=O)O)c1ccccc1 here.
Response line: > 100 µM (inactive)

Prompt line: Supply recorded GI50 for O=C1C=C(NCC(c2ccccc2)c2ccccc2)C(=O)c2ncccc21 here.
Response line: 2.1 µM (inactive)

Prompt line: Supply recorded GI50 for OC(c1cc2ccccc2[nH]1)C(O)(c1cc2ccccc2[nH]1)c1cc2ccccc2[nH]1 (configuration not stated) here.
Response line: 5.53 µM (inactive)

Prompt line: Supply recorded GI50 for COC(=O)[C@]1(c2cc3ccccc3[nH]2)CC2CN(C(=O)OCc3ccccc3)C1CC2=O (some centres not stated) here.
Response line: 17.4 µM (inactive)

Prompt line: Supply recorded GI50 for O=[N+]([O-])C(=C(N1CCCCC1)N1CCCCC1)/C(Cl)=C(\Cl)[N+](=O)[O-] here.
Response line: 1.67 µM (inactive)

Prompt line: Supply recorded GI50 for CCOC(=O)/C(C(=O)Nc1cccc(Cl)c1)=C(/N)N1CCOCC1 here.
Response line: > 100 µM (inactive)

Prompt line: Supply recorded GI50 for O=C1NC(O)CCN1C1CC(O)C(CO)O1 (configuration not stated) here.
Response line: > 100 µM (inactive)

Prompt line: Supply recorded GI50 for CCC1C(C#N)=C(O)NC(O)=C1C#N here.
Response line: > 100 µM (inactive)

Prompt line: Supply recorded GI50 for COC(=O)[C@H]1CO[C@@H](C(C)(C)C)N1C(=O)N1C=CC(=O)C[C@@H]1C here.
Response line: > 100 µM (inactive)

Prompt line: Supply recorded GI50 for COC(=O)C(C)(C)/N=C/N(C)C here.
Response line: > 100 µM (inactive)

Prompt line: Supply recorded GI50 for CCOC(=O)CCN1C(=O)c2c(NC(=O)C(=O)O)cccc2S1(=O)=O here.
Response line: > 100 µM (inactive)

Prompt line: Supply recorded GI50 for CC(C)c1ccc(/C=C2\CSCC3=C2N=C2SCC(=O)N2C3c2ccc(C(C)C)cc2)cc1 (configuration not stated) here.
Response line: 92.7 µM (inactive)

Prompt line: Supply recorded GI50 for N=c1c2ccccc2nc2oc3ccccc3n12 here.
Response line: > 100 µM (inactive)

Prompt line: Supply recorded GI50 for O=C(NC(Cc1c[nH]c2ccccc12)C(=O)O)/C(=C/c1ccccc1O)NC(=O)c1ccccc1 (configuration not stated) here.
Response line: 24.7 µM (inactive)

Prompt line: Supply recorded GI50 for COc1cccc(/C=C2\S/C(=N/Nc3nc(-c4ccc([N+](=O)[O-])cc4)cs3)NC2=O)c1O here.
Response line: 22.1 µM (inactive)

Prompt line: Supply recorded GI50 for O=C1c2cccc3cc([N+](=O)[O-])cc(c23)C(=O)N1NC1=NCCN1 here.
Response line: > 100 µM (inactive)

Prompt line: Supply recorded GI50 for O=C(O)C1CCCCC1C(=O)Nc1nc2ccccc2[nH]1 (configuration not stated) here.
Response line: > 100 µM (inactive)
